Hey, just so you know, these numbers are from patent US7615361B2.

# PROCEDURE_DETAILS: MTT reduction
# Format: cell-based, rat
# TEST_CONDITIONS: rat
PROPERTY_LABEL: CC50 at 6 h (µM)
Your answer should be a plain number; it is taken to be in µM.

stdin: Looking for the measured CC50 at 6 h of COc1cccc2c1C(=O)c1c(O)c3c(c(O)c1C2=O)C[C@@](O)(C(=O)CO)C[C@@H]3O[C@H]1C[C@H](N)[C@H](O)[C@H](C)O1 [ADRIAMYCIN, Adriamycin] , can you help?
stdout: 18

----------
# PROCEDURE_DETAILS: MTT reduction
# TEST_CONDITIONS: human, SK-MEL28 cells, MTT TC50, SK-MEL28, 72 HR, run #2
PROPERTY_LABEL: CC50 at 72 h

stdin: Looking for the measured CC50 at 72 h of CC[C@@]1(O)C(=O)OCc2c1cc1n(c2=O)Cc2cc3ccccc3nc2-1 [CAMPTOTHECIN, Camptothecin] , can you help?
stdout: 100 nM

----------
# PROCEDURE_DETAILS: Intracellular total glutathione (GSH)
# TEST_CONDITIONS: human, HUVEC cells
PROPERTY_LABEL: CC50 at 24 h (nM)
Your answer should be a plain number; it is taken to be in nM.

stdin: Looking for the measured CC50 at 24 h of CC[C@@]1(O)C(=O)OCc2c1cc1n(c2=O)Cc2cc3ccccc3nc2-1 , can you help?
stdout: 1000

----------
# Test system: rat cardiomyocytes
# PROCEDURE_DETAILS: MTT reduction
# Type: cell-based
PROPERTY_LABEL: CC50

stdin: Looking for the measured CC50 of Cc1cn([C@H]2C[C@H](N=[N+]=[N-])[C@@H](CO)O2)c(=O)[nH]c1=O , can you help?
stdout: > 300 µM

----------
# PROCEDURE_DETAILS: MTT reduction
# Format: cell-based, rat
# TEST_CONDITIONS: rat
PROPERTY_LABEL: CC50 at 24 h (µM)
Your answer should be a plain number; it is taken to be in µM.

stdin: Looking for the measured CC50 at 24 h of COc1cccc2c1C(=O)c1c(O)c3c(c(O)c1C2=O)C[C@@](O)(C(C)=O)C[C@@H]3O[C@H]1C[C@H](N)[C@H](O)[C@H](C)O1 [DAUNORUBICIN, daunorubicin] , can you help?
stdout: 14

----------
# PROCEDURE_DETAILS: Intracellular total glutathione (GSH)
# Assay type: cell-based, rat
# TEST_CONDITIONS: rat, Total GSH TC50
Listed molecules paired with reported CC50 at 24 h

Observe how each entry below is paired with its result.
STRUCTURE_AS_SMILES | CC50 at 24 h
COc1cccc2c1C(=O)c1c(O)c3c(c(O)c1C2=O)C[C@@](O)(C(=O)CO)C[C@@H]3O[C@H]1C[C@H](N)[C@H](O)[C@H](C)O1 | 28 µM
O=C1c2c(O)ccc(O)c2C(=O)c2c(NCCNCCO)ccc(NCCNCCO)c21 | 247 µM
CC(C)(C)NC(=O)[C@@H]1CN(Cc2cccnc2)CCN1C[C@@H](O)C[C@@H](Cc1ccccc1)C(=O)N[C@H]1c2ccccc2C[C@H]1O | 249 µM

Turning now to a further record.
stdin: Looking for the measured CC50 at 24 h of Nc1nc(NC2CC2)c2ncn([C@H]3C=C[C@@H](CO)C3)c2n1 , can you help?
stdout: 213 µM
